Assign pKd to each entry below.
# system name: T1, Peptide F (monkey PAR-2), N-terminal biotinylated (Monkey (Macaca mulatta), N-terminal biotin via G4S linker)
# T1 construct: also called Peptide F N-Term
# T1 sequence (peptide, as listed by the source): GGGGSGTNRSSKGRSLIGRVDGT
# protocol summary: SPR, antibody captured
One number for each entry, as −log10 of the molar value.

Examples with answers:
* H4H588N (antibody, human IgG4, V domains shown, also called H2M588N variable regions) VH: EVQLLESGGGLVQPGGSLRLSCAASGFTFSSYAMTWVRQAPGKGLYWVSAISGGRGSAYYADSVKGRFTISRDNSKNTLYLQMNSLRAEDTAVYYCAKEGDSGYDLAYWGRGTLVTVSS VL: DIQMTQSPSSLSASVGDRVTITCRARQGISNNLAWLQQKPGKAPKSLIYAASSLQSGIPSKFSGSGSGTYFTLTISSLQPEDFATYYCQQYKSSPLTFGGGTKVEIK | 7.97
* H4H583P (antibody, human IgG4, V domains shown, also called H1H583P variable regions) VH: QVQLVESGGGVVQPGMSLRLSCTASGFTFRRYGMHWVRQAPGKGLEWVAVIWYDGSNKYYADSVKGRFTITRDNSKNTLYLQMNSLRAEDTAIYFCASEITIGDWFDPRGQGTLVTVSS VL: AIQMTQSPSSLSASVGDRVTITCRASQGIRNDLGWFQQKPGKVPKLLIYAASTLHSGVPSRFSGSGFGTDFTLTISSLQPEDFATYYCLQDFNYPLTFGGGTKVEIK | 6.95

Turning now to a further binder:
H4H579P (antibody, human IgG4, V domains shown, also called H1H579P variable regions) VH: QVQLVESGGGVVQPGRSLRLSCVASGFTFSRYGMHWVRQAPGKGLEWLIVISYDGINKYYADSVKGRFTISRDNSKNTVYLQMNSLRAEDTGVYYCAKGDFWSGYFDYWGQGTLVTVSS VL: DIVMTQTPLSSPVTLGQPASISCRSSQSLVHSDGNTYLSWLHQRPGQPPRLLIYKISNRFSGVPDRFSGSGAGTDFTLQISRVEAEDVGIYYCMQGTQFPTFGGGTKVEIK has a reported pKd of 7.31
